# testedTarget: human Factor IXa (human, UniProt P00740 47-191; P00740 227-461)
# methodSummary: cell-based or functional assay
Recorded EC50 [µM], FXa generation assay, one value per entry.

Please review the following examples before continuing.
binder	EC50 [µM], FXa generation assay
KLTCLASYCW	> 10 µM
KLTCLASYCWXF (not fully specified; Nle 11) [KLTCLASYCW-Nle-F]	< 0.5 µM

Request the reported EC50 [µM], FXa generation assay associated with RRKPGKLQCLASYCWLFWTGIA > 1 µM

Request the reported EC50 [µM], FXa generation assay associated with RRCPGKLQALASYCWLFWTGIA > 1 µM

Request the reported EC50 [µM], FXa generation assay associated with AQLRRKLTCLASYCWLFGFFSP > 1 µM

Request the reported EC50 [µM], FXa generation assay associated with PRIRTVGPGSRSASGKLTCLASYCWLFWSGIA < 0.5 µM

Request the reported EC50 [µM], FXa generation assay associated with RRAPGKLQCLASYCWLFWT > 1 µM
